# Organism: Rattus norvegicus
# Method Summary: DrugMatrix - Regimen: Daily Repeat
# Assay type: toxicity, organism-based, Sprague-Dawley
# Parameters: regimen Daily Repeat, gender Male, age 6-8 weeks
# Condition Parameters: in vivo, po, 0 mg/kg, 72 h, tissue Blood, route oral GAVAGE, dose level Control, time 3 day, […]
Quick reference: ABSOLUTE EOSINOPHIL of the listed items.
Measure Name: ABSOLUTE EOSINOPHIL (CELLS/uL)

1. O=C(O)COC(=O)Cc1ccccc1Nc1c(Cl)cccc1Cl [ACECLOFENAC] | 0
2. CCOC(=O)C1=C(C)NC(C)=C(C(=O)OCC)C1c1ccccc1/C=C/C(=O)OC(C)(C)C [LACIDIPINE] | 13.67
3. CS(=O)(=O)c1ccc(C2=C(c3ccccc3)C(=O)OC2)cc1 [ROFECOXIB] | 0
4. CC#C[C@]1(O)CC[C@H]2[C@@H]3CCC4=CC(=O)CCC4=C3[C@@H](c3ccc(N(C)C)cc3)C[C@@]21C [MIFEPRISTONE] | 14
5. COc1ccccc1OCCNCC(O)COc1cccc2[nH]c3ccccc3c12 (centres undefined) [CARVEDILOL] | 0
6. CC(C)(c1ccc(O)cc1)c1ccc(O)cc1 [BISPHENOL A] | 33
7. Oc1ncnc2[nH]ncc12 [ALLOPURINOL] | 0
8. COC(=O)Nc1nc2ccc(C(=O)c3ccccc3)cc2[nH]1 [MEBENDAZOLE] | 0
9. C#C[C@]1(O)CC[C@H]2[C@@H]3CCC4=CC(=O)CC[C@@H]4[C@H]3CC[C@@]21C [NORETHINDRONE] | 14
10. CO[C@H]1O[C@@H]2O[C@@]3(C)CC[C@H]4[C@H](C)CC[C@@H]([C@H]1C)[C@@]24OO3 | 138.5
11. CCC(C)(C)C(=O)O[C@H]1C[C@@H](C)C=C2C=C[C@H](C)[C@H](CC[C@@H]3C[C@@H](O)CC(=O)O3)[C@H]21 [SIMVASTATIN] | 14
12. Cc1cccc(C)c1NC(=O)C(C)N (centres undefined) [TOCAINIDE] | 41.83
13. c1ccc2c(c1)Nc1ccccc1S2 [PHENOTHIAZINE] | 0
14. O=C(Nc1ccc(Cl)c(Cl)c1)c1cc(Cl)cc(Cl)c1O [3,3',4',5-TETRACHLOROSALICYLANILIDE] | 0

----------
Measured SODIUM accompanies every entry in the list below.
# Species on record: Rattus norvegicus
# Method Summary: DrugMatrix - Regimen: Daily Repeat
# Format: toxicity, organism-based, Sprague-Dawley
# Parameters: regimen Daily Repeat, gender Male, age 6-8 weeks
# Condition Parameters: in vivo, po, 0 mg/kg, 120 h, tissue Plasma, route oral GAVAGE, dose level Control, time 5 day, […]
Measure Name: SODIUM

1) c1ccc2c(c1)Nc1ccccc1S2 | 142.53 MEQ/L
2) O=C(Nc1ccc(Cl)c(Cl)c1)c1cc(Cl)cc(Cl)c1O [3,3',4',5-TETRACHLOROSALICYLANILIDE] | 142.2 MEQ/L
3) CC#C[C@]1(O)CC[C@H]2[C@@H]3CCC4=CC(=O)CCC4=C3[C@@H](c3ccc(N(C)C)cc3)C[C@@]21C | 141.62 MEQ/L
4) COC(=O)Nc1nc2ccc(C(=O)c3ccccc3)cc2[nH]1 | 143.93 MEQ/L

----------
# Species: Rattus norvegicus
# Method Summary: DrugMatrix - Regimen: Daily Repeat
# Format: toxicity, organism-based, Sprague-Dawley
# Parameters: regimen Daily Repeat, gender Male, age 6-8 weeks
# Condition Parameters: in vivo, po, 0 mg/kg, 120 h, tissue Blood, route oral GAVAGE, dose level Control, time 5 day, vehicle 100 % WATER
Measure Name: MONOCYTE

1) NN [HYDRAZINE] | 1.17%
2) CC(Cl)(Cl)Cl | 1.67%
3) CCN(CC)C(=S)SSC(=S)N(CC)CC | 0.83%
4) C1CCN2C[C@@H]3C[C@@H](CN4CCCC[C@@H]34)[C@H]2C1 | 1.67%
5) C[N+](C)(C)CCOC(N)=O.[Cl-] | 1%
6) CN1C(=O)OC(C)(C)C1=O | 3%

----------
ASPARTATE AMINOTRANSFERASE values for the compounds below.
# Species on record: Rattus norvegicus
# Method Summary: DrugMatrix - Regimen: Daily Repeat
# Format: toxicity, organism-based, Sprague-Dawley
# Set-up: regimen Daily Repeat, gender Male, age 6-8 weeks
# Condition Parameters: in vivo, po, 0 mg/kg, 120 h, tissue Plasma, route oral GAVAGE, dose level Control, time 5 day, […]
Measure Name: ASPARTATE AMINOTRANSFERASE

1. COC(=O)Nc1nc2ccc(C(=O)c3ccccc3)cc2[nH]1 [MEBENDAZOLE] | 88.5 u/L
2. Oc1ncnc2[nH]ncc12 [ALLOPURINOL] | 93.67 u/L
3. O=C(O)COC(=O)Cc1ccccc1Nc1c(Cl)cccc1Cl [ACECLOFENAC] | 88.5 u/L
4. CCC(C)(C)C(=O)O[C@H]1C[C@@H](C)C=C2C=C[C@H](C)[C@H](CC[C@@H]3C[C@@H](O)CC(=O)O3)[C@H]21 [SIMVASTATIN] | 84.5 u/L
5. COc1ccccc1OCCNCC(O)COc1cccc2[nH]c3ccccc3c12 (stereo not drawn) [CARVEDILOL] | 88.5 u/L
6. CC(C)(c1ccc(O)cc1)c1ccc(O)cc1 [BISPHENOL A] | 122.83 u/L
7. CC#C[C@]1(O)CC[C@H]2[C@@H]3CCC4=CC(=O)CCC4=C3[C@@H](c3ccc(N(C)C)cc3)C[C@@]21C [MIFEPRISTONE] | 84.5 u/L
8. c1ccc2c(c1)Nc1ccccc1S2 [PHENOTHIAZINE] | 83 u/L
9. CO[C@H]1O[C@@H]2O[C@@]3(C)CC[C@H]4[C@H](C)CC[C@@H]([C@H]1C)[C@@]24OO3 | 96.83 u/L
10. O=C(Nc1ccc(Cl)c(Cl)c1)c1cc(Cl)cc(Cl)c1O [3,3',4',5-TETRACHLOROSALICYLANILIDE] | 89.17 u/L
11. CS(=O)(=O)c1ccc(C2=C(c3ccccc3)C(=O)OC2)cc1 [ROFECOXIB] | 83 u/L
12. CCOC(=O)C1=C(C)NC(C)=C(C(=O)OCC)C1c1ccccc1/C=C/C(=O)OC(C)(C)C [LACIDIPINE] | 83.33 u/L
13. Cc1cccc(C)c1NC(=O)C(C)N (stereo not drawn) [TOCAINIDE] | 83.33 u/L

----------
# Species: Rattus norvegicus
# Method Summary: DrugMatrix - Regimen: Daily Repeat
# Assay type: toxicity, organism-based, Sprague-Dawley
# Design: regimen Daily Repeat, gender Male, age 6-8 weeks
# Condition Parameters: in vivo, po, 0 mg/kg, 120 h, tissue Blood, route oral GAVAGE, dose level Control, time 5 day, […]
Measure Name: LYMPHOCYTE

1) CC#C[C@]1(O)CC[C@H]2[C@@H]3CCC4=CC(=O)CCC4=C3[C@@H](c3ccc(N(C)C)cc3)C[C@@]21C | 90.17%
2) O=C(Nc1ccc(Cl)c(Cl)c1)c1cc(Cl)cc(Cl)c1O [3,3',4',5-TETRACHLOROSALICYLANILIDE] | 89%
3) CO[C@H]1O[C@@H]2O[C@@]3(C)CC[C@H]4[C@H](C)CC[C@@H]([C@H]1C)[C@@]24OO3 | 87.17%
4) Oc1ncnc2[nH]ncc12 | 84.5%
5) O=C(O)COC(=O)Cc1ccccc1Nc1c(Cl)cccc1Cl | 88.67%
6) COC(=O)Nc1nc2ccc(C(=O)c3ccccc3)cc2[nH]1 | 88.67%
7) Cc1cccc(C)c1NC(=O)C(C)N (stereo not drawn) [TOCAINIDE] | 91.17%
8) CCC(C)(C)C(=O)O[C@H]1C[C@@H](C)C=C2C=C[C@H](C)[C@H](CC[C@@H]3C[C@@H](O)CC(=O)O3)[C@H]21 | 90.17%

----------
# Organism: Rattus norvegicus
# Method Summary: DrugMatrix - Regimen: Daily Repeat
# Type: toxicity, organism-based, Sprague-Dawley
# Set-up: regimen Daily Repeat, gender Male, age 6-8 weeks
# Condition Parameters: in vivo, po, 0 mg/kg, 120 h, tissue Blood, route oral GAVAGE, dose level Control, time 5 day, vehicle .5 % CMC
Measure Name: ABSOLUTE EOSINOPHIL (CELLS/uL)

1. NCC(CC(=O)O)c1ccc(Cl)cc1 (stereo not given) [BACLOFEN] | 69
2. CN(C)CCOC(c1ccccc1)c1ccccc1.Cn1c(=O)c2[nH]c(Cl)nc2n(C)c1=O [DIMENHYDRINATE] | 114.5
3. Cl.NC[C@H]1CC[C@H](C(=O)Oc2ccc(CCC(=O)O)cc2)CC1 [CETRAXATE HYDROCHLORIDE] | 190.67
4. CC(C)(C#N)c1cc(Cn2cncn2)cc(C(C)(C)C#N)c1 [ANASTROZOLE] | 20.5
5. CCN1CCCC1CNC(=O)c1cc(S(N)(=O)=O)ccc1OC (stereo not given) [SULPIRIDE] | 23.33
